- target.or.system: alpha1-adrenoceptor
- assay.details: [3H]-Prazosin binding assay (affinity for alpha1-adrenoceptors)
- condition.parameters: partially purified rat brain membranes; 0.2 nM [3H]-prazosin, 60 min, 25° C.
pIC50: −log10 of the molar value.
observable: pIC50

{"molecule": "COC(=O)C1=C(C)NC(C)=C([N+](=O)[O-])C1c1ccccc1[S+]([O-])CCCCN1CCN(c2ccccc2OC)CC1 (centres unmarked) [Example 4]", "censor.symbol": "=", "experimental.result": 7.70}
{"molecule": "COc1ccccc1N1CCN(CCOC(=O)C2=C(C)NC(C)=C([N+](=O)[O-])C2c2ccoc2)CC1 (centres unmarked) [Example 55]", "censor.symbol": "=", "experimental.result": 7.00}
{"molecule": "CC1=C(C(=O)OCCN2CCN(c3ncccn3)CC2)C(c2cccs2)C([N+](=O)[O-])=C(C)N1 (centres unmarked) [Example 73]", "censor.symbol": "=", "experimental.result": 5.31}
{"molecule": "COc1ccccc1N1CCN(CCCCOC(=O)C2=C(C)NC(C)=C([N+](=O)[O-])C2c2ccco2)CC1 (centres unmarked) [Example 69]", "censor.symbol": "=", "experimental.result": 7.46}
{"molecule": "CC1=C(C(=O)OCCCCN2CCN(c3ncccn3)CC2)C(c2cccc3nonc23)C([N+](=O)[O-])=C(C)N1 (centres unmarked) [Example 54]", "censor.symbol": "=", "experimental.result": 6.09}
{"molecule": "COC(=O)C1=C(C)NC(C)=C([N+](=O)[O-])C1c1ccccc1S(=O)(=O)CCCCN1CCN(c2ccccc2OC)CC1 (centres unmarked) [Example 3]", "censor.symbol": "=", "experimental.result": 7.20}
{"molecule": "CC1=C(C(=O)OCCN2CCN(c3ncccn3)CC2)C(c2ccsc2)C([N+](=O)[O-])=C(C)N1 (centres unmarked) [Example 66]", "censor.symbol": "=", "experimental.result": 5.22}
{"molecule": "COc1ccccc1N1CCN(CCOC(=O)C2=C(C)NC(C)=C([N+](=O)[O-])C2c2ccco2)CC1 (centres unmarked) [Example 59]", "censor.symbol": "=", "experimental.result": 7.00}
{"molecule": "COc1ccccc1N1CCN(CCCCOC(=O)C2=C(C)NC(C)=C([N+](=O)[O-])C2c2ccoc2)CC1 (centres unmarked) [Example 67]", "censor.symbol": "=", "experimental.result": 7.20}
{"molecule": "COC(=O)C1=C(C)NC(C)=C([N+](=O)[O-])C1c1ccccc1OCCCCCN1CCN(C(=O)c2ccco2)CC1 (centres unmarked) [Example 5]", "censor.symbol": "=", "experimental.result": 5.66}
{"molecule": "CC1=C(C(=O)OCCN2CCN(c3ncccn3)CC2)C(c2ccco2)C([N+](=O)[O-])=C(C)N1 (centres unmarked) [Example 60]", "censor.symbol": "=", "experimental.result": 5.23}
{"molecule": "COc1ccccc1N1CCN(CCCCOC(=O)C2=C(C)NC(C)=C([N+](=O)[O-])C2c2cccnc2)CC1 (centres unmarked) [Example 52]", "censor.symbol": "=", "experimental.result": 7.28}
{"molecule": "COC(=O)C1=C(C)NC(C)=C([N+](=O)[O-])C1c1ccccc1OCCCCCN1CCN(C(=O)C2COc3ccccc3O2)CC1 (centres unmarked) [Example 9]", "censor.symbol": "=", "experimental.result": 5.28}
{"molecule": "COc1ccccc1N1CCN(CCCCOC(=O)C2=C(C)NC(C)=C([N+](=O)[O-])C2c2cccn2C)CC1 (centres unmarked) [Example 57]", "censor.symbol": "=", "experimental.result": 7.48}
{"molecule": "COc1ccccc1N1CCN(CCOC(=O)C2=C(C)NC(C)=C([N+](=O)[O-])C2c2cccc3nonc23)CC1 (centres unmarked) [Example 75]", "censor.symbol": "=", "experimental.result": 6.33}
{"molecule": "CC1=C(C(=O)OCCN2CCN(c3ncccn3)CC2)C(c2cccn2C)C([N+](=O)[O-])=C(C)N1 (centres unmarked) [Example 78]", "censor.symbol": "=", "experimental.result": 5.48}
{"molecule": "COc1ccccc1N1CCN(CCCCOC(=O)C2=C(C)NC(C)=C([N+](=O)[O-])C2c2ccsc2)CC1 (centres unmarked) [Example 71]", "censor.symbol": "=", "experimental.result": 7.11}
{"molecule": "COc1ccccc1N1CCN(CCOC(=O)C2=C(C)NC(C)=C([N+](=O)[O-])C2c2cccn2C)CC1 (centres unmarked) [Example 77]", "censor.symbol": "=", "experimental.result": 6.96}
{"molecule": "COc1ccccc1N1CCN(CCCCOC(=O)C2=C(C)NC(C)=C([N+](=O)[O-])C2c2cccc3nonc23)CC1 (centres unmarked) [Example 51]", "censor.symbol": "=", "experimental.result": 6.92}
{"molecule": "COc1ccccc1N1CCN(CCOC(=O)C2=C(C)NC(C)=C([N+](=O)[O-])C2c2ccsc2)CC1 (centres unmarked) [Example 65]", "censor.symbol": "=", "experimental.result": 6.74}
{"molecule": "CC1=C(C(=O)OCCCCN2CCN(c3ncccn3)CC2)C(c2cccs2)C([N+](=O)[O-])=C(C)N1 (centres unmarked) [Example 64]", "censor.symbol": "=", "experimental.result": 5.92}
{"molecule": "COc1ccccc1N1CCN(CCOC(=O)C2=C(C)NC(C)=C([N+](=O)[O-])C2c2cccnc2)CC1 (centres unmarked) [Example 61]", "censor.symbol": "=", "experimental.result": 7.60}
{"molecule": "COC(=O)C1=C(C)NC(C)=C([N+](=O)[O-])C1c1ccccc1OCCCCCN1CCN(c2ccc(Cl)nn2)CC1 (centres unmarked) [Example 7]", "censor.symbol": "=", "experimental.result": 5.72}
{"molecule": "COC(=O)C1=C(C)NC(C)=C([N+](=O)[O-])C1c1ccccc1OCCCCCN1CCC(c2ccccc2)CC1 (centres unmarked) [Example 6]", "censor.symbol": "=", "experimental.result": 6.05}
{"molecule": "COC(=O)C1=C(C)NC(C)=C([N+](=O)[O-])C1c1ccoc1CCCCCN1CCN(C(=O)c2ccco2)CC1 (centres unmarked) [Example 2]", "censor.symbol": "=", "experimental.result": 5.72}
{"molecule": "CC1=C(C(=O)OCCN2CCN(c3ncccn3)CC2)C(c2cccc3nonc23)C([N+](=O)[O-])=C(C)N1 (centres unmarked) [Example 76]", "censor.symbol": "=", "experimental.result": 4.77}
{"molecule": "CC1=C(C(=O)OCCN2CCN(c3ncccn3)CC2)C(c2cccnc2)C([N+](=O)[O-])=C(C)N1 (centres unmarked) [Example 62]", "censor.symbol": "<", "experimental.result": 6.00}
{"molecule": "CC1=C(C(=O)OCCCCN2CCN(c3ncccn3)CC2)C(c2ccsc2)C([N+](=O)[O-])=C(C)N1 (centres unmarked) [Example 72]", "censor.symbol": "=", "experimental.result": 6.00}
{"molecule": "COC(=O)C1=C(C)NC(C)=C([N+](=O)[O-])C1c1ccccc1OCCCCCN1CCN(c2cnccn2)CC1 (centres unmarked) [Example 10]", "censor.symbol": "=", "experimental.result": 5.14}
